Molecular target: S-adenosylmethionine synthase isoform type-2 (Homo sapiens, UniProt P31153)
Sequence (P31153 whole entry, canonical isoform): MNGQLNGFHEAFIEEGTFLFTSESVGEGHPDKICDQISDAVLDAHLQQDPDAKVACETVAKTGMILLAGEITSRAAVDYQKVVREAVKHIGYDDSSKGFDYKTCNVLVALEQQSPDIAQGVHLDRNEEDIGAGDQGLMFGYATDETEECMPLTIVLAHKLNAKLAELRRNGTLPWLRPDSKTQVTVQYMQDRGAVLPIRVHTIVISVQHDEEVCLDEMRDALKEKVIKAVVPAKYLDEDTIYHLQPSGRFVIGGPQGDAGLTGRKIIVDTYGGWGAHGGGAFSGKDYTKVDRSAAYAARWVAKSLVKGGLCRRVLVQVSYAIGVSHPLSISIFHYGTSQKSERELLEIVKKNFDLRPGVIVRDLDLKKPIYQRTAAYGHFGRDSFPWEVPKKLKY
Assay: Enzymatic Activity of MAT2A
Exercise: state measured pIC50 for each of the molecules provided.
Answers are plain numbers, as −log10 of the molar value.

CCOc1c(-c2ccc(OC(F)F)cc2)c(=O)n(-c2ccc3nn(CCOC)cc3c2)c2[nH]ncc12 [US20260014125, Compound 21]    8.08

Look up pIC50 for the entries below, preserving their order.
1. CCOc1c(-c2ccc(OC(F)F)cc2)c(=O)n(-c2ccn3nccc3c2)c2[nH]ncc12 [US20260014125, Compound 23]
2. CCOc1c(-c2ccc(OC(F)F)cc2)c(=O)n(-c2ccc3ncnn3c2)c2[nH]ncc12 [US20260014125, Compound 25]
3. CCOc1c(-c2ccc(OC(F)F)cc2)c(=O)n(-c2ccc3nccn3c2)c2[nH]ncc12 [US20260014125, Compound 24]

Ans:
1: 8.01; 2: 7.85; 3: 7.80
